All values here come from paper PMC5616206.

test: Pharmacokinetics of S9229 in rats, single iv or oral dose; type: in vivo, Sprague-Dawley rats; conditions: female, Sprague-Dawley, rat, plasma, po, 30 mg/kg
ASSAY_READOUT: half-life (h)
Give bare numbers, in h.

QUERY: Param item = `COC[C@@H](CC(C)C)NC(=O)c1ccc(C)c(C)c1` ; retrieve measured half-life.
RESULT: 1.82

====

assay: Pharmacokinetics of S807 in rats, single iv or oral dose; type: in vivo, Sprague-Dawley rats; conditions: male, Sprague-Dawley, rat, plasma, po, 20 mg/kg
ASSAY_READOUT: Cmax (ng/mL)
One number for each entry, in ng/mL.

QUERY: Param item = `CCCC(CCC)NC(=O)c1ccc2c(c1)OCO2` ; retrieve measured Cmax.
RESULT: 174
